Biological target: T1, TCE-31 (anti-CD3 scFv W238A; anti-TROP2 wt)
T1 construct: scFv on the Fab heavy chain; also called TCE-31 (W238A)
Assay: competition ELISA, TCE on captured CD3
Where no end group is shown, it is not given here.
IC50 overview
RECORDED_ENDPOINT: IC50 (µM)

>>> assay_result("GSQCLGPEWEVCPY (cysteine pairing not given here; also: biotinylated, site not given here, mask peptide for the CD3 scFv) [Peptide-66]")
51.5
>>> assay_result("VYCGPEFDESVGCM (cysteine pairing not given here; also: biotinylated, site not given here, mask peptide for the CD3 scFv) [Peptide-67]")
21.6
>>> assay_result("DWCWYSPDNDGLCD (cysteine pairing not given here; also: biotinylated, site not given here, mask peptide for the CD3 scFv) [Peptide-68]")
9.47
>>> assay_result("QGCGTIADPEPHCW (cysteine pairing not given here; also: biotinylated, site not given here, mask peptide for the CD3 scFv) [Peptide-65]")
17.7
>>> assay_result("VDCGPDGDESILCY (cysteine pairing not given here; also: biotinylated, site not given here, mask peptide for the CD3 scFv) [Peptide-71]")
51
>>> assay_result("YLCGPDGDETLACY (cysteine pairing not given here; also: biotinylated, site not given here, mask peptide for the CD3 scFv) [Peptide-70]")
43.5
>>> assay_result("ASQCLGPEWEVCPY (cysteine pairing not given here; also: biotinylated, site not given here, mask peptide for the CD3 scFv) [Peptide-74]")
33.8
>>> assay_result("SECLVDLQSDPCYW (cysteine pairing not given here; also: biotinylated, site not given here, mask peptide for the CD3 scFv) [Peptide-69]")
6.57
>>> assay_result("AYCGPEFDESVGCM (cysteine pairing not given here; also: biotinylated, site not given here, mask peptide for the CD3 scFv) [Peptide-72]")
29.9
